assay: inhibitors of TNFa-induced NFkB p65 translocation, primary screen, imaging, HUVEC, MLSMR starter and 10KST1 sets (AID 438); conditions: HUVEC TNFa-induced p65 nuclear translocation; measured here: nuclei count (cytotoxicity indicator), at 2.08 µM;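 also: compound added about 3h40 before a 20 min TNFalpha stimulation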
value.type: cell count
Enter the number alone.

Previously resolved entries follow.
molecule: CCN(CC)CCN1C(=O)C(=O)/C(=C(/O)c2c(C)[nH]c(C(=O)OC)c2C)C1c1ccccc1 (centres undefined)
value.type: cell count
numeric.result: 727
--
molecule: CCOC(=O)C1=C(C)OC(N)=C(C#N)C1c1cc2ccccc2nc1N1CCCCC1 (centres undefined)
value.type: cell count
numeric.result: 619
--
molecule: CN1Cc2c(N3CCOCC3)nc(SCc3ccccc3)c(C#N)c2CC1(C)C
value.type: cell count
numeric.result: 524
--
molecule: CC(C)(C)OC(=O)NCCc1nnc(SCC(=O)c2ccc(Cl)cc2)o1
value.type: cell count
numeric.result: 282
--
molecule: N#Cc1nc(-c2ccc(F)cc2)oc1N1CCCC1
value.type: cell count
numeric.result: 706

Request: Quick one: give measured cell count for "O=C(Cc1ccccc1)Nc1cccc(-c2nnc(-c3ccco3)o2)c1"
Response: 665

Request: Quick one: give measured cell count for "Cc1ccc(-c2nc3ccccc3[nH]2)s1"
Response: 362

Request: Quick one: give measured cell count for O=C(NCC(c1cccnc1)N1CCOCC1)c1cccs1 (centres undefined)
Response: 357
